Reference source for all entries: patent US20240158446A1

- TARGET: GDP-bound KRAS wild-type protein (Homo sapiens)
- Sequence (P01116 whole entry): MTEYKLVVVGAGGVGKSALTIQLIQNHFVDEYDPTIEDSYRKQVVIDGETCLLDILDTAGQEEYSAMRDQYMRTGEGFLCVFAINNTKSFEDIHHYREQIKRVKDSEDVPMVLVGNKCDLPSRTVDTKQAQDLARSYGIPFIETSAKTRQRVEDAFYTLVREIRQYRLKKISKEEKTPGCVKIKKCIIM
- PROTOCOL_NOTES: Binding to KRAS by surface plasmon resonance (SPR), Single Cycle Kinetics
- PROTOCOL_CONDITIONS: SPR, Single Cycle Kinetics, GDP-bound KRAS wild-type protein; read-out: KRAS KD
pKd: −log10 of the molar value.
READOUT_KIND: pKd

# TEST_SMILES, MEAS_VALUE
rows = [
    ("CCO[C@@H]1C[C@H]2C(=O)NC3(CCC3)C(=O)N(C)[C@@H](C3CCCC3)C(=O)N(C)[C@H](C(=O)N3CCOCC3)CC(=O)N(C)[C@@H](Cc3ccccc3C)C(=O)N[C@@H]([C@@H](C)CC)C(=O)N(C)CC(=O)N(C)[C@H]3CCCCCN(C3=O)[C@@H](Cc3ccc(C(F)(F)F)cc3)C(=O)N(C)CC(=O)N[C@@H](CCc3cc(F)c(C(F)(F)F)c(F)c3)C(=O)N2C1", 8.72),
    ("CCO[C@@H]1C[C@H]2C(=O)NC3(CCC3)C(=O)N(C)[C@@H](C3CCCC3)C(=O)N(C)[C@H](C(=O)N(C)C)CC(=O)N(C)[C@@H](C(C)C)C(=O)N[C@@H]([C@@H](C)CC)C(=O)N(C)CC(=O)N(C)[C@H]3C/C=C\\CCN(C3=O)[C@@H](Cc3ccc(C(F)(F)F)cc3)C(=O)N(C)CC(=O)N[C@@H](CCc3cc(F)c(C(F)(F)F)c(F)c3)C(=O)N2C1", 9.92),
]

====

- TARGET: GDP-bound KRAS wild-type protein (Homo sapiens)
- PROTOCOL_NOTES: Binding to KRAS by surface plasmon resonance (SPR), Single Cycle Kinetics
- PROTOCOL_CONDITIONS: SPR, Single Cycle Kinetics, GDP-bound KRAS wild-type protein; read-out: KRAS KD
pKd: −log10 of the molar value.

# TEST_SMILES, TARGET, pKd
records = [
    ("CCO[C@@H]1C[C@H]2C(=O)NC3(CC(C)(C)C3)C(=O)N(C)[C@@H](C3CCCC3)C(=O)N(C)[C@H](C(=O)N(C)C)CC(=O)N(C)[C@@H](CC)C(=O)N[C@@H]([C@@H](C)CC)C(=O)N(C)CC(=O)N(C)[C@H]3C/C=C\\CCN(C3=O)[C@@H](Cc3ccc(C(F)F)cc3)C(=O)N(C)CC(=O)N[C@@H](CCc3cc(F)c(C(F)(F)F)c(F)c3)C(=O)N2C1", "GDP-bound KRAS wild-type protein (Homo sapiens)", 10.40),
    ("CCO[C@@H]1C[C@H]2C(=O)NC3(CCC3)C(=O)N(C)[C@@H](C3CCCC3)C(=O)N(C)[C@H](C(=O)N3CCOCC3)CC(=O)N(C)[C@@H](CC)C(=O)N[C@@H]([C@@H](C)CC)C(=O)N3CC[C@H]3C(=O)N(C)[C@H]3CC(C)=CCN(C3=O)[C@@H](Cc3ccc(C(F)(F)F)cc3)C(=O)N(C)CC(=O)N[C@@H](CCc3cc(F)c(C(F)(F)F)c(F)c3)C(=O)N2C1", "GDP-bound KRAS wild-type protein (Homo sapiens)", 8.89),
    ("CCO[C@@H]1C[C@H]2C(=O)NC3(CCC3)C(=O)N(C)[C@@H](C3CCCC3)C(=O)N(C)[C@H](C(=O)N(C)CC)CC(=O)N(C)[C@@H](C3CCC3)C(=O)N[C@@H]([C@@H](C)CC)C(=O)N(C)CC(=O)N(C)[C@H]3C/C=C\\CCN(C3=O)[C@@H](Cc3ccc(C(F)(F)F)cc3)C(=O)N(C)CC(=O)N[C@@H](CCc3cc(F)c(C(F)(F)F)c(F)c3)C(=O)N2C1", "GDP-bound KRAS wild-type protein (Homo sapiens)", 9.92),
]
